Known cell viability of a selection of molecules
System: P12-Ichikawa
test details: cell viability relative to DMSO control; higher = less cytotoxic
particulars: RPMI 5 mM glucose + 10% FBS; 48 h; 0.0211 µM
measured quantity: cell viability (%)

molecule	measured quantity	test value
CN(C)C/C=C/C(=O)Nc1ccc(C(=O)Nc2cccc(Nc3ncc(Cl)c(-c4c[nH]c5ccccc45)n3)c2)cc1	cell viability	89
CCc1ccc(OCc2ccccc2C(=O)Nc2ccc3nc(C)cc(N)c3c2)cc1	cell viability	113
CN(CCOc1ccc(CC2SC(=O)NC2=O)cc1)c1ccccn1 (stereo not given)	cell viability	116
O=C(O)c1cc(O)c2c(c1)C(=O)c1cccc(O)c1C2=O	cell viability	119
OC(=O)\C1=C\N(C2CC2)C3=CC(=C(F)C=C3C1=O)N4CCNCC4	cell viability	108
CC(C)(N)c1ccc(-c2nc3ccccc3nc2-c2ccccc2)cc1	cell viability	111
COC1=CC=C(C=C1)/C2=C(O)/C(=O)C3=C(O)C=C(O)C(=C3O2)CC=C(C)C	cell viability	110
CC[C@H]1OC(=O)[C@H](C)[C@@H](O[C@H]2C[C@@](C)(OC)[C@@H](O)[C@H](C)O2)[C@H](C)[C@@H](O[C@@H]2O[C@H](C)C[C@H](N(C)C)[C@H]2O)[C@](C)(OC)C[C@@H](C)C(=O)[C@H](C)[C@@H](O)[C@]1(C)O	cell viability	88.4
CC(=O)N(C)C1(c2ccccc2)CCN(CCC[C@]2(c3ccc(Cl)c(Cl)c3)CCCN(C(=O)c3ccccc3)C2)CC1	cell viability	107
CN(C)CCCC1(c2ccc(F)cc2)OCc2cc(C#N)ccc21 (stereo not given)	cell viability	91.1
